These measurements were taken from patent US20220298237A1.

# target_entity: T1, oligopeptide ATYPSGHLDM (SEQ ID NO: 1) (human and mouse)
# T1 construct: Synthetic peptide; positions 148 to 157 of the human AQP3 polypeptide, identical in mouse; also called peptide used for immunization; oligopeptide 5
# T1 peptide: ATYPSGHLDM
# assay_info: ELISA on peptide, Fab
measurement_kind: binding result

BC-A9 (Fab) (Fab, V domains shown) VH: QSVEESGGRLVTPGGSLTLTCTVSRFSLSSYAMTWVRQAPGKGLEWIGIINNDGISSTWYASWVKGRFTISKTSTTMDLKMTSLTTEDTATYFCARGGTSGYDIWGPGTVVTVSL VL: AQGLTQTPASVSAAVGGTVTINCQSSPSVYKNYLSWYQQKSGQPPKLLIYGASTLASGAPSRFKGSGSGTQFTLTISDVQCDDAATYYCAGGYRGSSDIFAFGGGTEVVVK | binds
BC-F7 (Fab) (Fab, V domains shown) VH: QSVEESGGRLVTPGGSLTLTCTVSRFSLSSYAMTWVRQAPGKGLEWIGIINNDGISSTWYASWVKGRFTISKTSTTMDLKMTSLTTEDTATYFCARGGTSGYDIWGPGTVVTVSL VL: ALVLTQTPSPVSAAVGGTVTINCQSSQSVYKNYLSWYQQKPGQPPKLLIYGASTLASGVPSRFKGSGSGTQFTLTISDVQCDDAATYYCAGGYRGSGDIFAFGGGTEVVVK | binds
BC-E11 (Fab) (Fab, V domains shown) VH: QSVKESGGRLVAPGTPLTLTCAVSGFSLSSYAMTWVRQAPGKGLEWIGIINNDGRSSTWYASWVKGRFTISKTSTTMDLKMTSPTTEDTATYFCARGGTSGYDIWGPGTLVTVSL VL: AQGMTQTPSPVSAAVGGTVTINCQSSPSVYKNYLSWYQQKPGQPPKLLIYGASTLASGVPSRFKGSGSGTRFTLTISDVQCDDAATYYCAGGYRGSSDIFAFGGGTEVVVK | binds
